B1: TPR 5TU (parent)
chain: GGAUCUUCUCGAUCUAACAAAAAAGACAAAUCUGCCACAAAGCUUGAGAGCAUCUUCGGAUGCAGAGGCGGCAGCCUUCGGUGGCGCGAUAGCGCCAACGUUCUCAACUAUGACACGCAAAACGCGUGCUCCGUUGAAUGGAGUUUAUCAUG

Variants of: B1
Assay protocol: polymerase ribozyme fitness, log enrichment relative to wild type (log ratio); higher = more active; in vitro selection for triplet polymerase activity
This sample holds only a part of the variants without activity.
Recorded metric: polymerase ribozyme fitness (log ratio)

Task item: Which polymerase ribozyme fitness (log ratio) is reported for this variant? A52G G58U A66G G70U G92A G100A C116A U148A
Reply: ≤ -4.2

Please look at the items below and tell me polymerase ribozyme fitness (log ratio) for each one, in order.
1. A17C A21U C51U G59C C95U A106U G136C U151G
2. C51A U55A A60C G74A G81A U90G C95A
3. U7A A22G C72A A122U C131A

Reply:
["≤ -4.2", "≤ -4.2", "≤ -4.2"]

Please look at the items below and tell me polymerase ribozyme fitness (log ratio) for each one, in order.
1. A29G G94U A97G C149U
2. C18G G83A U145G U151G
3. A16C U44A C69G C75G A91U C114G G117C
4. C95A C96A U104C A142C
5. A37C C57U G86A C95G C99G C131U

Reply:
≤ -4.2
≤ -4.2
≤ -4.2
-4.07
≤ -4.2

Please look at the items below and tell me polymerase ribozyme fitness (log ratio) for each one, in order.
1. A19G C93A G140A
2. U55G C85G
3. U56A A91G U148C
4. A40U G84A
5. A60U G65C
6. A21C G42U C69G C85U A98U A106G A120U
7. A21U A24C U33C G94A A107C

Reply:
["≤ -4.2", -1.66, -3.72, -0.341, -3.98, "≤ -4.2", "≤ -4.2"]

Please look at the items below and tell me polymerase ribozyme fitness (log ratio) for each one, in order.
1. G34U C75G G81U C87U A120U
2. A106G U146A
3. C5A A28G C35G A37U C85G C96G C103G U151A
4. U33G C87A A142U
5. G58A C103A
6. G25C A97G

Reply:
[-3.98, -0.139, -3.65, "≤ -4.2", -1.19, -2.53]
